Just for reference, patent US12686673B2 is where these values come from.

biological target: EGFR (H773insNPH) expressing Ba/F3 stable cell line (Homo sapiens, UniProt P00533, DUP771-773, cells depend on it); assay: Cellular proliferation (Alamar Blue) assay, EGFR H773insNPH Ba/F3; format: cell-based; conditions: 72 hr, read-out: NPH IC50
Sequence (P00533 with tags, fused parts or gaps DUP771-773): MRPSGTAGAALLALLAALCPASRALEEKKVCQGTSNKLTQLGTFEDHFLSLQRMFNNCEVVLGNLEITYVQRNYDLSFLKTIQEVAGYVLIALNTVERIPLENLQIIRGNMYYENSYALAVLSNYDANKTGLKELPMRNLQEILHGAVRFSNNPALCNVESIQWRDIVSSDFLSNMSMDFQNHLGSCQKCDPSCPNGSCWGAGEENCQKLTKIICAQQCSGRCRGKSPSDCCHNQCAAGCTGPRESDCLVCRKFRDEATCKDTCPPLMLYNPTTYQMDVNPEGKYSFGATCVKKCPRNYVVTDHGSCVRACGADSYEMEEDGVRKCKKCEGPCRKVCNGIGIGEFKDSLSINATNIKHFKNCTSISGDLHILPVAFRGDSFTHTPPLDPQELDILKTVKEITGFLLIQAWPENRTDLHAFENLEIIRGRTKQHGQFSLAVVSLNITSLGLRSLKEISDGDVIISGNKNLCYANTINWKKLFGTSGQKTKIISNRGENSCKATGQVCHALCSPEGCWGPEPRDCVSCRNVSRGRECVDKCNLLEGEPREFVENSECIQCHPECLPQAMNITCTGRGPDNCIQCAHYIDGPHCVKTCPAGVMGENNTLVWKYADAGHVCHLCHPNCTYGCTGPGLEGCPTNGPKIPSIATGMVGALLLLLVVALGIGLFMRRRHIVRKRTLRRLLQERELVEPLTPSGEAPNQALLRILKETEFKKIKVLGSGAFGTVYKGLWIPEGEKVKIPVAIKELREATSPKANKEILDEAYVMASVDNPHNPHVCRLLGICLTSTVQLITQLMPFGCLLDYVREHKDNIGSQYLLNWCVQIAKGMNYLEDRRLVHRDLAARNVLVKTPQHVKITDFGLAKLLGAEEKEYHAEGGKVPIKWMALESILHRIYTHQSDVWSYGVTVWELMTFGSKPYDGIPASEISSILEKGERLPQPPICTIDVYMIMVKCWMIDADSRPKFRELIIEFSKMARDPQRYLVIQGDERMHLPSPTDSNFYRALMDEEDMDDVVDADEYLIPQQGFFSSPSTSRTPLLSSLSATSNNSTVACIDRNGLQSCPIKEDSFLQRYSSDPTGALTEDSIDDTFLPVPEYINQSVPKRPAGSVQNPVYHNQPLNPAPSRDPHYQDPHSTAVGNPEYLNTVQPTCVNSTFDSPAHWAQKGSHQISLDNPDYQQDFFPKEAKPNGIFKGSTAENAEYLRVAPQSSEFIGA
readout name: GI50 (nM)

Worked examples follow.
Exam item: What measured GI50 goes with C=CC(=O)Nc1cccc(Nc2nc(Nc3cnn(C)c3)ncc2NC(=O)c2ccccc2)c1 ?
Marked response: 3010

Exam item: Param item = C=CC(=O)Nc1ccc(F)c(Nc2nc(Nc3cnn(C4CCC(O)CC4)c3)ncc2Cl)c1 (centres unmarked) ; retrieve measured GI50.
Marked response: 796

A. C=CC(=O)Nc1ccc(F)c(Nc2nc(Nc3cnn(C)c3)ncc2-c2cncc(C(F)(F)F)c2)c1
B. C=CC(=O)Nc1ccc(F)c(Nc2nc(Nc3cnn(C4COC4)c3)ncc2-c2ccc(C(F)(F)F)cc2)c1
C. C=CC(=O)Nc1ccc(F)c(Nc2nc(Nc3cnn(C)c3)ncc2-c2ccc(C(F)F)nc2)c1
D. C=CC(=O)Nc1ccc(F)c(Nc2nc(Nc3cnn(C)c3)ncc2-c2ccc(OC(F)(F)F)cc2)c1
E. C=CC(=O)Nc1ccc(F)c(Nc2nc(Nc3cnn(C)c3)ncc2-c2ccc(N3CCOCC3)cc2)c1
Exam item: Falling order of GI50, please. Put the labels in the requested order and write them down.
Marked response: E, B, D, A, C
(E: 448 nM, B: 148 nM, D: 89 nM, A: 41 nM, C: 25 nM)
